# tgt: ROCK2 (Homo sapiens (Human), UniProt O75116)
# Sequence (O75116 whole entry, species assumed): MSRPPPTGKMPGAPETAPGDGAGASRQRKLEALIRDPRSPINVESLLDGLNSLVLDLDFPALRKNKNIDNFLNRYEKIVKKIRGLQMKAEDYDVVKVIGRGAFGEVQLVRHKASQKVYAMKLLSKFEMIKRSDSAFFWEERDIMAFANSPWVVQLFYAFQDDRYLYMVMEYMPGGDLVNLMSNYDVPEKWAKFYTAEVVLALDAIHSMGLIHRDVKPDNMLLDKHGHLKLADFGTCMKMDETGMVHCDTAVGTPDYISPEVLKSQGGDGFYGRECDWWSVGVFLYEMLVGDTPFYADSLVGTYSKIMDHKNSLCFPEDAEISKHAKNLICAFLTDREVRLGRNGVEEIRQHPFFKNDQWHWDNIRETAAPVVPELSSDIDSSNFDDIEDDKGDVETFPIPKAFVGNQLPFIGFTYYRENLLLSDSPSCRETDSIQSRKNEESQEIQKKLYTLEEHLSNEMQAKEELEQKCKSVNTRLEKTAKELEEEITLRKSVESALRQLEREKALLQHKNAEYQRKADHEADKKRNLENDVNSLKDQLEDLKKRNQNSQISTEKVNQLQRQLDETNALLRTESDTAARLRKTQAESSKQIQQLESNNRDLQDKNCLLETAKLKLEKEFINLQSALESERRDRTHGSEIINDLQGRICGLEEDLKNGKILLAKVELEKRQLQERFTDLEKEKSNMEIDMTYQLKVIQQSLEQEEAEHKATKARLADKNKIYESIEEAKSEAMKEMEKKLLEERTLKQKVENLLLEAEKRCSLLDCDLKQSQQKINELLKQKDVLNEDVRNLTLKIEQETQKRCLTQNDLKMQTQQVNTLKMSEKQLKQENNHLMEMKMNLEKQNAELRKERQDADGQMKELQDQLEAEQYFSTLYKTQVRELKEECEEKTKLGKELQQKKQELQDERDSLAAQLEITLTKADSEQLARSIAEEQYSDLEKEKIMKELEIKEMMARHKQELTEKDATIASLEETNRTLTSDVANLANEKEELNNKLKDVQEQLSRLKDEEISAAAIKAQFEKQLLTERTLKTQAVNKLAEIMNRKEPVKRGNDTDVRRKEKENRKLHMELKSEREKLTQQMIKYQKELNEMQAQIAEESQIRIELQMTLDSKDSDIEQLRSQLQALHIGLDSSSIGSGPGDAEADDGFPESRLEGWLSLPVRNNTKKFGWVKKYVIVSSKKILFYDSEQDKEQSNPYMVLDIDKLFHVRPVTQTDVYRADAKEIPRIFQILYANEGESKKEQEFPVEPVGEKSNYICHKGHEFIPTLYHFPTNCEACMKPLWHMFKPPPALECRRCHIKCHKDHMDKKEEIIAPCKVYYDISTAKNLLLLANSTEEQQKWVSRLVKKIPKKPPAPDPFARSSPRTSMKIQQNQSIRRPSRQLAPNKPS
pIC50: −log10 of the molar value.
Label rule, in plain words: pIC50 of 8 and up is label 1, under 8 is label 0.

Consider the following illustrative entries.
Cc1cccc2c(C(N)=O)c(O[C@H]3C[C@@]4(C[C@H](NC(=O)c5nn(C(F)F)c6cc(OCC(C)(C)O)ccc56)C4)C3)nn12 (stereo partly drawn) [Example 133] = label 0
[H][C@]1(Oc2nn3ccccc3c2C(N)=O)C[C@]2(C[C@@H](NC(=O)c3cnn4c(C5CC5)c(OCC(C)(C)O)ccc34)C2)C1 (stereo partly drawn) [Example 6] = label 0
CC(C)(O)COc1ccc2c(C(=O)N[C@H]3C[C@]4(C3)C[C@H](Oc3nn5ccccc5c3C(N)=O)C4)nn(C(F)F)c2c1 (stereo partly drawn) [Example 121] = label 0
Cn1ncc2cc(C(N)=O)c(O[C@H]3C[C@@]4(C[C@H](NC(=O)c5cnn6c(C7CC7)c(OCC(C)(C)O)ccc56)C4)C3)nc21 (stereo partly drawn) [Example 147] = label 1

Next item in the queue.
Request: // inclusive: pIC50 at least 8? input: Cc1sc2cc(C(N)=O)c(O[C@H]3C[C@@]4(C[C@H](NC(=O)c5cnn6cc(OCC(C)(C)O)ccc56)C4)C3)nc2c1C (stereo partly drawn) [Example 94]
Response: label 0
